- Measurement description: amyloid nucleation score (Sup35N fusion, yeast selection) (log enrichment); library NNK2; higher = more nucleation; inactive = no reads after selection;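 further: zero at mode of non-aggregating sequences after 7 days selection at 30°C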

- Sequence content: "VLMYIWDLVGGSLSFKKVLF"
  amyloid nucleation score: "inactive"
- Sequence content: "LSWAHVVICLIW"
  amyloid nucleation score: "inactive"
- Sequence content: "IYFKIIQDKFQTRMCSNKSW"
  amyloid nucleation score: "inactive"

* * *

- Measurement description: amyloid nucleation score (Sup35N fusion, yeast selection) (log enrichment); library NNK2; higher = more nucleation; inactive = no reads after selection
Quantity kind: amyloid nucleation score

- Substance: "GHLLASKLLQSSYETCS"
  Result: 0.286
- Substance: "AFCKGYIARMRSINAGVGAG"
  Result: -0.144
- Substance: "CRYPFTPACTYMNLG"
  Result: -0.114
- Substance: "VHSGLYAKCVRLYMQNFPHL"
  Result: 0.192
- Substance: "NCETLCVLVGAQYC"
  Result: 4.13
- Substance: "IRMGRANRWEVLARWTSVVA"
  Result: 9.55
- Substance: "FTKVFRLHYFMRLTSMYVAF"
  Result: -0.567
- Substance: "HMSGLNGLGCLGTCLWLCSS"
  Result: "inactive"
- Substance: "IVKYLVCEQTKILCMMCTCD"
  Result: 8.89
- Substance: "SSYLMTYC"
  Result: -0.104
- Substance: "NRIFGTHLTFSGYS"
  Result: -0.466
- Substance: "SFTCALRLGVRGHWLIVTSF"
  Result: 0.276
- Substance: "LIPLIVLGGTDSFKELYGYE"
  Result: -0.624
- Substance: "NKSGDSQLLRVYYIVLVFMW"
  Result: -1.08
- Substance: "IKGVRQHLTTYKGTL"
  Result: -0.408
- Substance: "VRLLGYIWKLLPHVVNQKV"
  Result: 0.31
- Substance: "KTCSDMWYAVRHSNHETSV"
  Result: 1.34
- Substance: "ARMRKFTCRDWFRDPMGQPA"
  Result: 0.854
- Substance: "RVESDTDVIVQIMQWRGVFL"
  Result: 0.334
- Substance: "HHFNLPMKKGRFVSLGFSLV"
  Result: -0.623
- Substance: "TTMWYTS"
  Result: -0.837
- Substance: "FYHISYGERKRGGLC"
  Result: "inactive"
- Substance: "SRLISTHTAT"
  Result: "inactive"
- Substance: "YPCKSDF"
  Result: -1.66
- Substance: "GMESSMVRNVEHVKERVYIE"
  Result: 3.6
- Substance: "LNYLCVHTLIACVSWVPVSA"
  Result: 2.36

* * *

- Measurement description: amyloid nucleation score (Sup35N fusion, yeast selection) (log enrichment); library NNK2; higher = more nucleation; inactive = no reads after selection
Quick reference for amyloid nucleation score among some substances

- Substance: "AGSNDEKNRWVTSL"
  amyloid nucleation score: -0.22
- Substance: "VCDVLYKFGYSKN"
  amyloid nucleation score: 4.89
- Substance: "CSYCFCCVH"
  amyloid nucleation score: 8.29
- Substance: "QYVVNLFYPLYMEKKCWSSI"
  amyloid nucleation score: 6.29
- Substance: "RVIVGRYWQSTDVVYYIWNF"
  amyloid nucleation score: -1.59
- Substance: "FWQNCMALLFRFIMFKRKNV"
  amyloid nucleation score: -1.27
- Substance: "CAVEVM"
  amyloid nucleation score: -0.724
- Substance: "MYWLFR"
  amyloid nucleation score: 0.461
- Substance: "CITLMYNTPFYKITALWQPF"
  amyloid nucleation score: -0.484
- Substance: "ERLGSLFNDGQANS"
  amyloid nucleation score: 0.21
- Substance: "HCVMLHGGSPRHLNRRTDIC"
  amyloid nucleation score: 0.292
- Substance: "SSRSTCNINSYELSVSVQLR"
  amyloid nucleation score: 5.35
- Substance: "CNVWDVSGDTFVTYGKDDRG"
  amyloid nucleation score: 0.275
- Substance: "SFCVLIRYNRFGAIS"
  amyloid nucleation score: 1.24
- Substance: "SCEVVSRKL"
  amyloid nucleation score: 1.08
- Substance: "TCPCRYLDVNIDAMFVTMDI"
  amyloid nucleation score: 7.79
- Substance: "SYGIAWTIMT"
  amyloid nucleation score: -0.701
- Substance: "PFQSNNSEVDGSYYMSVRC"
  amyloid nucleation score: -0.705
- Substance: "YRCVDYKGIEYLLYREMLTT"
  amyloid nucleation score: 3.93
- Substance: "EHIASLVMNAANSTNPVGQK"
  amyloid nucleation score: -0.339
- Substance: "RITPFWYQRIYRIMY"
  amyloid nucleation score: -0.339
- Substance: "VIGAGCIEKQRTVEAGGCRG"
  amyloid nucleation score: 1.23
- Substance: "RFDCLTVLLVFESYHFKTAG"
  amyloid nucleation score: -0.392
- Substance: "SRSSTCGSRGLTGNRGGGIG"
  amyloid nucleation score: 0.299
- Substance: "HIWTEVFIYVCSWRLYTTRV"
  amyloid nucleation score: -1.48
- Substance: "NSGCLSLGFRHLSNPWLHS"
  amyloid nucleation score: 2.71
- Substance: "TYMSYFSSTWKILVGAHWRR"
  amyloid nucleation score: 1.85
- Substance: "FSKLVSIYFWGSGWWFCQWA"
  amyloid nucleation score: -0.532
- Substance: "MSFRSRPGLDDGWMIRWRGR"
  amyloid nucleation score: 0.446
- Substance: "DFSAFNEGHQINHLIQGSV"
  amyloid nucleation score: -1.35
- Substance: "GIMSFG"
  amyloid nucleation score: 1.66
- Substance: "FITHKDYLFAGQ"
  amyloid nucleation score: -1.16
- Substance: "SDPLSFGFGQMWIGVHNEFY"
  amyloid nucleation score: 2.2
- Substance: "AILKWSLICMMGRDWYSQWF"
  amyloid nucleation score: 6.32
- Substance: "YHTRIYDL"
  amyloid nucleation score: 0.576
- Substance: "ATYAGMFMEEMPEHYFVWGT"
  amyloid nucleation score: 0.356
- Substance: "NVRSWYLDNLFLTFAVA"
  amyloid nucleation score: 0.164
- Substance: "RVKLACTRLCWLSADFDGNL"
  amyloid nucleation score: 4.04
- Substance: "FLRIVSNVLKWQRA"
  amyloid nucleation score: 2.83
- Substance: "PWCESLCVRRGAESVSTWVK"
  amyloid nucleation score: 1.2
- Substance: "LVTSCLQVEW"
  amyloid nucleation score: 0.284
- Substance: "ISGFRPSAYWSVLNWNSSL"
  amyloid nucleation score: -1.78
- Substance: "MFGGQELCACLDKEGRTESG"
  amyloid nucleation score: 5.09
- Substance: "KSRISMPPSVLLDYGLAHNA"
  amyloid nucleation score: -0.598
- Substance: "NILNFMDS"
  amyloid nucleation score: -0.603
- Substance: "HVGFHQKVRSELCRA"
  amyloid nucleation score: 0.087
- Substance: "HPHIFDLVVIYCQNGHV"
  amyloid nucleation score: 6.92
- Substance: "YKEVWY"
  amyloid nucleation score: -0.284
- Substance: "NSLGRYSFRFVRCEGVWKTR"
  amyloid nucleation score: -0.88
- Substance: "RGKYAITCVMLWK"
  amyloid nucleation score: 5.77
- Substance: "HSLVTDEASCLTDRGHVGQV"
  amyloid nucleation score: 1.22
- Substance: "GLVSLLYGY"
  amyloid nucleation score: 0.185
- Substance: "RFVYMLVCIELVG"
  amyloid nucleation score: -0.953
